Entries annotated with measured Inhibition
# Test system: HepG2
# ASSAY: GSK_TCMDC: Percent inhibition of human HepG2 cell line. Test compounds present at 10uM.
# Format: functional
PARAMETER MEASURED: Inhibition (%)

* CC(C)Sc1nc(-c2ccccc2)nc2c1COC(C)(C)C2 | 2
* CN(C)CCCNCc1ccc(-c2ccc(CNCCc3ccccc3)cc2)cc1.O=C(O)C(F)(F)F | 61
* O=C(NCCCCCN1CCC(c2c[nH]c3ccccc23)CC1)c1ccc(-c2cccnc2)cc1 | 29
* O=C(O)C(F)(F)F.c1cc(-c2ccc(CN3CCCC3)cc2)cc(-c2nc3ccccc3[nH]2)c1 | 25
* O=C(Nc1ccc(-c2nc3ccccc3[nH]2)cc1)c1ccc(N2CCOCC2)c([N+](=O)[O-])c1 | 47
* COc1ccc(-c2ccc(NC(=O)c3ccc(C#N)cc3)cc2)cc1CN(C)CCO.O=C(O)C(F)(F)F | 41
* Cc1cccc2nc(-c3cccc(-c4cccc(NC(=O)c5ccc(=O)[nH]n5)c4)c3)[nH]c12 | 10
* NCc1cccc(-c2cccc(CNC3CCN(Cc4ccccc4)CC3)c2)c1.O=C(O)C(F)(F)F | 9
* CN1CCC(C(=O)Nc2ccc(-c3ccc(-c4nc5ccccc5[nH]4)s3)cc2)CC1 | 30
